- Tested on: SK-MEL-2 melanoma
- ASSAY PROCEDURE: NCI-60 one-dose screen, 48 h (100 = growth as untreated, 0 = no growth, -100 = all killed)
- PROTOCOL CONDITIONS: 10 µM unless noted
About 83,000 compounds went through this panel and 20% of them were active in at least one assay; those are over-represented in the sample as a whole. Calls of active or inactive are those of the source. Rule for the calls: active = growth percent below 10; inactive = the rest.
ASSAY READOUT: growth

Exercise: Given the entry Nc1nc2ccc3[nH]ncc3c2c2c1CCCC2 , report its measured growth.
Key: -7.53% (active)

Exercise: Given the entry Oc1cccc2ccc(N/N=C/c3cc(CN4CCOCC4)c(O)c4ncccc34)nc12 , report its measured growth.
Key: 25% (inactive)

Exercise: Given the entry COc1cc(/C=C/C(=O)Nc2cccnc2Nc2ccc(F)cc2)cc(OC)c1OC , report its measured growth.
Key: 68.4% (inactive)

Exercise: Given the entry Cc1ccc(NS(=O)(=O)c2ccc(-c3cnc(C4CC4)o3)cc2)cc1C , report its measured growth.
Key: 38.5% (inactive)

Exercise: Given the entry COc1ccc(C(=S)N2CCN(c3cccc(Cl)c3)CC2)cc1 , report its measured growth.
Key: 80.4% (inactive)

Exercise: Given the entry O=C1CC(=NCC(=O)n2c(-c3ccccc3)nc3ccccc32)NN1 , report its measured growth.
Key: 98.7% (inactive)

====

- Test system: 786-0 renal
- ASSAY PROCEDURE: NCI-60 one-dose screen, 48 h (100 = growth as untreated, 0 = no growth, -100 = all killed)
- PROTOCOL CONDITIONS: 10 µM unless noted
About 83,000 compounds went through this panel and 20% of them were active in at least one assay; those are over-represented in the sample as a whole.
# note: exactly 30% is not below, so it is 0.0; use 1.0 for growth strictly under it

Exercise: Regarding O=C(/C=C/c1cccc(Cl)c1)c1ccc(O)c(CN2CCN(c3cc4c(cc3F)c(=O)c(C(=O)O)cn4C3CC3)CC2)c1 , kindly confirm whether its growth is beneath 30%.
Key: 0.0

Exercise: Regarding CSc1nc(Nc2cccc(NC(=O)/C(C#N)=C/c3c(Cl)cccc3Cl)c2)c(C#N)c(-c2cccc([N+](=O)[O-])c2)n1 , kindly confirm whether its growth is beneath 30%.
Key: 0.0

Exercise: Regarding COC(=O)[C@]12CCC(C)(C)C[C@H]1[C@H]1C(=O)C[C@@H]3[C@@]4(C)c5c([nH]c6ccccc6c5=O)C(C)(C)[C@@H]4CC[C@@]3(C)[C@]1(C)CC2 , kindly confirm whether its growth is beneath 30%.
Key: 0.0

Exercise: Regarding CCOc1cc2ncc(C#N)c(Nc3ccc(F)c(Cl)c3)c2cc1NC(=O)CC1CCSS1 (centres undefined) , kindly confirm whether its growth is beneath 30%.
Key: 1.0

Exercise: Regarding COc1ccc(C(=O)COc2ccc(/C=C3\COc4ccc(OC)cc4C3=O)cc2)cc1 , kindly confirm whether its growth is beneath 30%.
Key: 0.0

Exercise: Regarding CN(C)CCN1C(=O)c2cccc3c(N)ccc(c23)C1=O , kindly confirm whether its growth is beneath 30%.
Key: 0.0

Exercise: Regarding CCCOc1ccc2nc(NC(=O)OC)[nH]c2c1 , kindly confirm whether its growth is beneath 30%.
Key: 0.0

Exercise: Regarding Cc1nn(-c2cc(=O)[nH]c3ccccc23)c(N)c1C#N , kindly confirm whether its growth is beneath 30%.
Key: 0.0

Exercise: Regarding COc1cc(/C=C/c2cc(O)c3cc(C(C)=O)c(=O)oc3c2)cc2c1O[C@]1(C)CC[C@@H](O)C(C)(C)[C@H]1C2 , kindly confirm whether its growth is beneath 30%.
Key: 1.0

====

- Test system: BT-549 breast
- ASSAY PROCEDURE: NCI-60 one-dose screen, 48 h (100 = growth as untreated, 0 = no growth, -100 = all killed)
- PROTOCOL CONDITIONS: 10 µM unless noted
The panel holds about 83,000 compounds, 20% with a hit somewhere; the sample as a whole holds those more often. Calls of active or inactive are those of the source. Rule for the calls: active = growth percent below 10; inactive = the rest.
So I've got a bunch of compounds here, and I need their growth values.

Exercise: Given the entry Cc1ccc(O)c(N2C(=NCc3ccco3)NS(=O)(=O)c3cnccc32)c1 , report its measured growth.
Key: 101% (inactive)

Exercise: Given the entry Cc1nc(/N=C(\N)NC(=O)Nc2cccc([N+](=O)[O-])c2)sc1C , report its measured growth.
Key: 65.8% (inactive)

Exercise: Given the entry COc1ccc2c(c1)c(-c1nonc1-c1cn(C)c3ccccc13)cn2C , report its measured growth.
Key: 60.2% (inactive)

Exercise: Given the entry COc1ccc(CN2c3ccccc3Oc3ccccc32)cc1O , report its measured growth.
Key: 39.9% (inactive)

Exercise: Given the entry CSc1nc(NCCN2CCOCC2)c(C#N)c(-c2cccc([N+](=O)[O-])c2)n1 , report its measured growth.
Key: 94.2% (inactive)

Exercise: Given the entry O=C(/C=C/c1cccc([N+](=O)[O-])c1)c1ccc(O)c(CN2CCN(c3cc4c(cc3F)c(=O)c(C(=O)O)cn4C3CC3)CC2)c1 , report its measured growth.
Key: 6.04% (active)

Exercise: Given the entry Cc1cc(N2CCOCC2)nc(N[C@@H]2CCC[C@H](Nc3ccnc4cc(Cl)ccc34)C2)n1 , report its measured growth.
Key: 26% (inactive)

Exercise: Given the entry CCN(CC)c1ccc(/C=N\NC(=O)/C=C/C=C/c2ccc3c(c2)OCO3)c(O)c1 , report its measured growth.
Key: 51.8% (inactive)

Exercise: Given the entry NC(=O)c1cc(Br)ccc1NC(=O)/C=C/c1ccccc1 , report its measured growth.
Key: 90.1% (inactive)

Exercise: Given the entry COc1ccc(-c2nn(-c3ccc(Cl)cc3)cc2-c2nc3ccccc3[nH]2)cc1 , report its measured growth.
Key: 113% (inactive)

Exercise: Given the entry CC1CCNC(C)C1 (configuration not stated) , report its measured growth.
Key: 105% (inactive)

Exercise: Given the entry COc1cc(-c2nn(-c3ccc(C)cc3)cc2C(=O)O)ccc1O , report its measured growth.
Key: 103% (inactive)

Exercise: Given the entry Cn1c(NCCc2ccc(O)c(O)c2)nc2c1c(=O)n(Cc1ccc(Br)cc1)c(=O)n2C , report its measured growth.
Key: 73% (inactive)

Exercise: Given the entry O=C(Oc1cccnc1)c1ccsc1Nc1ccnc(C(F)(F)F)c1 , report its measured growth.
Key: 45% (inactive)

Exercise: Given the entry Nc1ccc(-c2cc3c(Nc4ccc(Oc5cccc(C(F)(F)F)c5)c(Cl)c4)ncnc3s2)cc1 , report its measured growth.
Key: 73% (inactive)

Exercise: Given the entry CN(C)[C@@H]1C(=O)C(C(=O)NCc2nc3[nH]cnc(=S)c3[nH]2)=C(O)[C@@]2(O)C(=O)C3=C(O)c4c(O)cccc4[C@@](C)(O)[C@H]3C[C@@H]12 , report its measured growth.
Key: 54% (inactive)

Exercise: Given the entry COc1cc(/C=C/c2cc(/C=C/c3ccc(O)c(OC)c3)n(-c3c(C)cccc3C)c(=O)n2)ccc1O , report its measured growth.
Key: -18.1% (active)

Exercise: Given the entry NC(=NC1C2CC3CC(C2)CC1C3)Nc1ccc(I)cc1 (configuration not stated) , report its measured growth.
Key: 53.7% (inactive)

Exercise: Given the entry O=[N+]([O-])c1ccc2c(c1)Cc1cc(F)ccc1-2 , report its measured growth.
Key: 105% (inactive)

Exercise: Given the entry C#CCOc1ccc2ncnc(N3CCC(NC(=O)CCl)CC3)c2c1 , report its measured growth.
Key: 64.2% [8.25 µM] (inactive)

Exercise: Given the entry NCCNc1nc(Nc2ccc(-c3nc4ccccc4[nH]3)cc2)c2cn[nH]c2n1 , report its measured growth.
Key: 80.2% (inactive)

Exercise: Given the entry O=C1Nc2c(ccc(Cl)c2Cl)/C1=C\c1cc(C(F)(F)F)cc(C(F)(F)F)c1 , report its measured growth.
Key: 14.9% (inactive)

Exercise: Given the entry Cc1cc(N2CCOCC2)nc(NCc2cc(Nc3ccnc4cc(Cl)ccc34)ccc2F)n1 , report its measured growth.
Key: -37.7% (active)

Exercise: Given the entry COC(=O)[C@]12CCC(C)(C)C[C@H]1[C@H]1C(=O)C[C@@H]3[C@@]4(C)c5c([nH]c6ccccc6c5=O)C(C)(C)[C@@H]4CC[C@@]3(C)[C@]1(C)CC2 , report its measured growth.
Key: 76.4% (inactive)

Exercise: Given the entry O=c1oc2c(C(F)(F)F)cccc2cc1-c1csc(Nc2ccc(OCCF)cc2)n1 , report its measured growth.
Key: 31.5% (inactive)

Exercise: Given the entry Nc1nc2ccc3[nH]ncc3c2c2c1CCCC2 , report its measured growth.
Key: -9.88% (active)

Exercise: Given the entry Nc1n[nH]c2cc(F)c([C@@H]3Nc4ccc5[nH]ncc5c4[C@H]4C5CCC(C5)[C@@H]34)cc12 (some centres not stated) , report its measured growth.
Key: -7.74% (active)

Exercise: Given the entry C=C1C(=O)O[C@H]2[C@H]1CC/C(COC(=O)NCCc1ccc(OC)c(OC)c1)=C\CC[C@@]1(C)O[C@@H]21 , report its measured growth.
Key: 64.3% (inactive)

Exercise: Given the entry O=C(/C=C/c1ccccc1)c1ccc(O)c(CN2CCN(c3cc4c(cc3F)c(=O)c(C(=O)O)cn4C3CC3)CC2)c1 , report its measured growth.
Key: 28.2% (inactive)

Exercise: Given the entry CCn1c(O)c(/C=N/NC(=O)C(C)c2ccc(CC(C)C)cc2)sc1=S (configuration not stated) , report its measured growth.
Key: 11.5% (inactive)

Exercise: Given the entry CSc1nc(Nc2cccc(NC(=O)/C(C#N)=C/c3c(Cl)cccc3Cl)c2)c(C#N)c(-c2cccc([N+](=O)[O-])c2)n1 , report its measured growth.
Key: 71.6% (inactive)

Exercise: Given the entry O=C(CN1CCCCC1)Nc1ccc2oc(=O)ccc2c1 , report its measured growth.
Key: 107% (inactive)

Exercise: Given the entry COc1ccc2[nH]cc(-c3noc(C(=O)c4cn(C)c5ccc(F)cc45)n3)c2c1 , report its measured growth.
Key: 88.9% (inactive)

Exercise: Given the entry CC(C)C1=C[C@@]23CC[C@@H]4[C@](C)(CCC[C@@]4(C)C(=O)N4CCCNCC4)[C@H]2C[C@@H]1[C@H]1C(=O)CCC(=O)[C@H]13 , report its measured growth.
Key: 104% (inactive)

Exercise: Given the entry O=C1c2cc3c(cc2-c2c1c1cc(F)c(F)cc1c(=O)n2CCCn1ccnc1)OCO3 , report its measured growth.
Key: 12.5% (inactive)

Exercise: Given the entry CCOc1cc2ncc(C#N)c(Nc3ccc(OCc4cccc(F)c4)c(Cl)c3)c2cc1NC(=O)CC1CCSS1 (configuration not stated) , report its measured growth.
Key: 44.6% (inactive)

Exercise: Given the entry O=C(CN(C(=O)Cn1c(=O)n2nnnc2c2ccccc21)c1ccccc1C(F)(F)F)Nc1ccc(C(F)(F)F)cc1 , report its measured growth.
Key: 95.7% (inactive)
